TEST_SYSTEM: Calmodulin-1 (Homo sapiens)
METHOD_NOTES: CALM1 binders on microarrays, EGTA buffer, profiling panel, biochemical, small-molecule microarray, Cy5-labelled CALM1 (AID 1111);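 note: labelled calmodulin applied in Tris saline Tween buffer holding calcium plus EGTA and DTT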
COND: Cy5-CALM1 binding fluorescence, higher = more signal
For each entry below, report its composite z-score value.
Reply with just the number.

Lookup: Any idea what composite z-score was measured for "CN(C)CCCC[C@@H]1NC(=O)[C@@H]2C[C@H](C(=O)NCCCCCNC(=O)CS)[C@H](c3ccc(O)cc3)N2C1=O" ?
Found: 0.0884

Lookup: Any idea what composite z-score was measured for "C[C@]1(C(=O)NCc2ccccc2)c2ccccc2C(=O)N(Cc2cc(C(F)(F)F)cc(C(F)(F)F)c2)[C@H]1c1ccc(CO)cc1" ?
Found: 0.956

Lookup: Any idea what composite z-score was measured for O=C1C2C=CC(C(O)C#Cc3ccccc3)N(Nc3ccccc3)C2C(=O)N1c1ccccc1 (configuration not stated) ?
Found: 0.482

Lookup: Any idea what composite z-score was measured for "C=C(CCCC)/C(=C/C[C@H](OC(=O)c1ccncc1)c1cccc(OCCO)c1)c1cc(C(=O)OC)ccc1OC" ?
Found: 0.267

Lookup: Any idea what composite z-score was measured for "CC(=O)NCCCC[C@@H]1NC(=O)[C@@H]2C[C@H](C(=O)NCCCCCCN(C)C)[C@H](c3ccc(O)cc3)N2C1=O" ?
Found: -0.158

Lookup: Any idea what composite z-score was measured for "C=CCc1cccc([C@@H]2[C@@H](C)CC[C@H]3C(=O)N4[C@H](c5cccc(CC=C)c5)[C@@H](C)CC[C@H]4C(=O)N23)c1" ?
Found: 0.254

Lookup: Any idea what composite z-score was measured for "Cc1ccc(S[C@]2(C(=O)NCCCN(C)C)CC(=O)N(Cc3ccccc3)[C@@H]2c2ccc(CO)cc2I)cc1" ?
Found: 0.453

* * *

For each entry below, report its composite z-score value.
Test system: Plasmodium falciparum Sir2 (PF13_0152, Sir2A)
METHOD_NOTES: pfSir2 binders on small-molecule microarrays, primary screen, biochemical, small-molecule microarray, 635 nm fluorescence (AID 1098);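 note: score merges spot fluorescence intensity with its signal-to-noise ratio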
COND: small-molecule microarray binding, fluorescence 635 nm; higher = more signal
Reply with just the number.

Lookup: Entry C=CCC(OC(C)=O)[C@@H]1[C@@H](N(Cc2cccc3ccccc23)C(=O)Cc2ccc(F)cc2)c2cc(OCCCO)ccc2N1C(=O)Cc1ccc2ccccc2c1 (stereo partly specified) , system Plasmodium falciparum Sir2 (PF13_0152, Sir2A): what composite z-score was measured?
Found: -0.182

Lookup: Entry "O=C1O[C@@H](c2ccccc2)[C@@H](c2ccccc2)N2[C@@H](c3ccc(O)cc3)[C@]3(C(=O)Nc4ccc(C#CC5(O)CCCCCC5)cc43)[C@@H](C(=O)Nc3nc4ccccc4s3)[C@H]12" , system Plasmodium falciparum Sir2 (PF13_0152, Sir2A): what composite z-score was measured?
Found: 0.864

Lookup: Entry "COc1cc2c(cc1OC)CN(C(=O)[C@H]1[C@@H]3C(=O)O[C@@H](c4ccccc4)[C@@H](c4ccccc4)N3[C@@H](c3ccccc3OCCO)[C@]13C(=O)Nc1ccc(C#CC4(O)CCCCCC4)cc13)CC2" , system Plasmodium falciparum Sir2 (PF13_0152, Sir2A): what composite z-score was measured?
Found: 1.6

Lookup: Entry C=C(C)[C@@H]1CC=C(C(O)C2C=CC3C(=O)NC(=O)C3N2Nc2ccccn2)CC1 (stereo partly specified) , system Plasmodium falciparum Sir2 (PF13_0152, Sir2A): what composite z-score was measured?
Found: 1.66

Lookup: Entry "[N-]=[N+]=NCc1ccccc1C[C@]1(C(=O)N2CCCCC2)N=C(c2ccc(OCCCO)cc2)O[C@H]1c1ccccc1CN=[N+]=[N-]" , system Plasmodium falciparum Sir2 (PF13_0152, Sir2A): what composite z-score was measured?
Found: 0.751

Lookup: Entry "COc1ccc([Si](C)(C)[C@@H]2[C@@H](CCO)O[C@]3(C(=O)N(Cc4ccccc4)c4ccccc43)[C@H]2C)cc1" , system Plasmodium falciparum Sir2 (PF13_0152, Sir2A): what composite z-score was measured?
Found: 0.183

* * *

TEST_SYSTEM: Albumin (Bos taurus) (UniProt P02769)
Sequence (P02769 whole entry, looked up): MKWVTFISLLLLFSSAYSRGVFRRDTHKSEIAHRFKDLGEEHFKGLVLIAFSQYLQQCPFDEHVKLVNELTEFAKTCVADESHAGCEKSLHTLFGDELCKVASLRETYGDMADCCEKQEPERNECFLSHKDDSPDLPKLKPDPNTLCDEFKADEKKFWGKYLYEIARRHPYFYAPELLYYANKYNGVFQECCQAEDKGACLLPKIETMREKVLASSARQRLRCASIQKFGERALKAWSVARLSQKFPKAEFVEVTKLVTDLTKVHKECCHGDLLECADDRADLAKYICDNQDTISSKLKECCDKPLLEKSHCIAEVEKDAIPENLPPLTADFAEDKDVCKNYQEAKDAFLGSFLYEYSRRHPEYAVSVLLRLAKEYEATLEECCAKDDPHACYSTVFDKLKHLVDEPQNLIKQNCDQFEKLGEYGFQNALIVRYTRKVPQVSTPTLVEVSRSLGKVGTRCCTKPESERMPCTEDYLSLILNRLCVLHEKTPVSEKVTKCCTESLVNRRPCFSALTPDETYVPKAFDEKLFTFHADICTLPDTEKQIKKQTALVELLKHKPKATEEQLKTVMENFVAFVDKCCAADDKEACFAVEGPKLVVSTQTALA
METHOD_NOTES: bovine serum albumin binders on microarray, profiling panel, artefact control for SMM control protein annotation, biochemical, small-molecule microarray, Alexa647 label, 635/667 nm fluorescence (AID 1118);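 note: score merges 667 nm emission intensity and signal-to-noise per printed compound spot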
COND: BSA-A647 binding, fluorescence 635 nm, higher = more signal
For each entry below, report its composite z-score value.
Reply with just the number.

Lookup: Any idea what composite z-score was measured for "C=C(CCCC)/C(=C/C[C@@H](OC(=O)c1ccncc1)c1cccc(OCCO)c1)c1cc(C(=O)OC)ccc1OC" ?
Found: 0.6

Lookup: Any idea what composite z-score was measured for "CC1=C([C@H](O)CCc2ccccc2)[C@H](CO)[C@@H]2C(=O)N(Cc3ccccc3)C(=O)[C@@H]2C1" ?
Found: 0.427

Lookup: Any idea what composite z-score was measured for C=CCC(OC(C)=O)[C@@H]1[C@@H](N(Cc2cccc3ccccc23)C(=O)Cc2ccc(F)cc2)c2cc(OCCCO)ccc2N1C(=O)Cc1ccc2ccccc2c1 (stereo partly specified) ?
Found: 0.0257

Lookup: Any idea what composite z-score was measured for "CO[C@H]1O[C@H](CO)[C@@H](OC(=O)Nc2ccc(Oc3ccccc3)cc2)[C@H](OC(=O)Nc2ccccc2-c2ccccc2)[C@H]1OC(=O)Nc1ccccc1-c1ccccc1" ?
Found: 0.892

Lookup: Any idea what composite z-score was measured for "O=C1O[C@H](c2ccccc2)[C@H](c2ccccc2)N2[C@H]1[C@@H](C(=O)Nc1nc3ccccc3s1)[C@]1(C(=O)Nc3ccc(C#CC4=CCCCC4)cc31)[C@H]2c1ccccc1OCCO" ?
Found: 0.581

Lookup: Any idea what composite z-score was measured for "Cc1ccc(S[C@]2(C(=O)NCCCN(C)C)CC(=O)N(C3CCCCC3)[C@@H]2c2ccc(CO)cc2I)cc1" ?
Found: -1.58

* * *

Tested on: Fibrinogen (Alexa647-labelled)
METHOD_NOTES: fibrinogen binders on compound microarrays, profiling panel, artefact control for SMM control-protein annotation, biochemical, small-molecule microarray, 635/667 nm fluorescence (AID 1131);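 note: z-score merges 667 nm fluorescence with per-spot signal-to-noise over triplicate slides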
COND: fibrinogen-A647 binding fluorescence, higher = more signal
ASSAY_METRIC: composite z-score

Lookup: Any idea what composite z-score was measured for "COc1ccc(CCN2C(=O)[C@@]3(c4ccc([N+](=O)[O-])cc4)CC(=O)N(CC45CC6CC(CC(C6)C4)C5)[C@@H]3c3ccc(CO)cc32)cc1" ?
Found: 0.138

Lookup: Any idea what composite z-score was measured for "C=CCNC(=O)[C@H]1[C@@H]2C(=O)O[C@@H](c3ccccc3)[C@@H](c3ccccc3)N2[C@@H](c2ccccc2OCCO)[C@]12C(=O)N(C(=O)OCCOC)c1ccc(C#CCNC(N)=O)cc12" ?
Found: 0.742

Lookup: Any idea what composite z-score was measured for Cc1cc(C)c(C(O)C2C=CC3C(=O)N(C)C(=O)C3N2N2CCCCC2)c(C)c1 (centres undefined) ?
Found: 0.985

Lookup: Any idea what composite z-score was measured for "CCOC(=O)C1=C[C@@H](c2ccccc2)N(S(=O)(=O)c2ccc(C)cc2)[C@H]1c1ccc(F)cc1" ?
Found: 0.995

Lookup: Any idea what composite z-score was measured for "C=C[C@H](OC)[C@@H](OC(=O)Nc1ccc(SC)cc1)c1ccc(O)c(F)c1" ?
Found: 0.756

Lookup: Any idea what composite z-score was measured for "O=C1c2ccccc2[C@](Cc2ccccc2I)(C(=O)NCc2ccccc2)[C@H](c2ccc(CO)cc2)N1Cc1ccccc1C(F)(F)F" ?
Found: -0.373

Lookup: Any idea what composite z-score was measured for "CC(=O)NCCCC[C@@H]1NC(=O)[C@@H]2C[C@H](C(=O)NCCCCCCN(C)C)[C@H](c3ccc(O)cc3)N2C1=O" ?
Found: 0.53

Lookup: Any idea what composite z-score was measured for "O=C1O[C@H](c2ccccc2)[C@H](c2ccccc2)N2[C@H]1[C@@H](C(=O)Nc1nc3ccccc3s1)[C@]1(C(=O)Nc3ccc(C#CC4(O)CCCCCC4)cc31)[C@H]2c1ccc(O)cc1" ?
Found: 1

Lookup: Any idea what composite z-score was measured for "O=C1O[C@@H](c2ccccc2)[C@@H](c2ccccc2)N2[C@@H](c3ccc(O)cc3)[C@]3(C(=O)Nc4ccccc43)[C@@H](C(=O)N3CCN(c4ncccn4)CC3)[C@H]12" ?
Found: 0.179

Lookup: Any idea what composite z-score was measured for "Cc1ccc(N2C(=O)c3ccccc3[C@](C)(C(=O)O)[C@@H]2c2ccc(CO)cc2)nc1" ?
Found: -0.912

Lookup: Any idea what composite z-score was measured for "CCOC(=O)C[C@H]1[C@H](OC(=O)Cc2ccc3c(c2)OCO3)[C@@H](NC(=O)CC(C)C)c2cc(OCCCO)ccc2N1C(=O)c1ccccc1" ?
Found: 0.165

Lookup: Any idea what composite z-score was measured for "Cc1ccc(S[C@]2(C(=O)O)CC(=O)N(Cc3ccccc3)[C@@H]2c2ccc(CO)cc2)cc1" ?
Found: 0.0619

Lookup: Any idea what composite z-score was measured for "CC(C)[Si](OCC[C@H]1O[C@]2(C(=O)N(Cc3ccccc3)c3ccccc32)[C@@H](C)[C@@H]1[Si](C)(C)O)(C(C)C)C(C)C" ?
Found: 0.618

Lookup: Any idea what composite z-score was measured for C=CCC(OC(C)=O)[C@@H]1[C@@H](N(Cc2cc3ccccc3o2)C(=O)Cc2ccc(F)cc2)c2cc(OCCCO)ccc2N1C(=O)c1ccc(-c2ccccc2)cc1 (some centres undefined) ?
Found: -1.2
